This collection of values is drawn from patent US4320127A.

- Test system: hexobarbital-narcosis
- protocol description: effect on the duration of hexobarbital-narcosis (Kaergaard)
- condition description: hexobarbital-narcosis, mice, oral
Where a name gives a salt, the structure may show the parent alone.
What Therapeutical index was measured for each of the following?
Please state the value as a number alone, without comment.

IN: Can you look up the measured Therapeutical index of CCCC(C)(COC(N)=O)COC(N)=O [Meprobamate, reference compound] for me?
OUT: 4.2

IN: # get_value(readout='Therapeutical index', item= `CCCCCCC1=Nc2cccnc2N(C(=O)c2cccnc2)N1` )
OUT: 14.3

IN: Could you tell me which Therapeutical index is on file for CCC(=O)N1NC(c2ccc(OC)cc2)=Nc2cccnc21 [Example 5, hydrochloride] ?
OUT: 4.4

IN: Reported Therapeutical index, compound `CCCCCCC1=Nc2cccnc2N(C(=O)c2ccccc2)N1.Cl` : ____
OUT: 5

IN: Sample `CCC(=O)N1NC(c2cc(OC)c(OC)c(OC)c2)=Nc2cccnc21.Cl` — what was its Therapeutical index?
OUT: 5.7
